target-or-system: PI3K-δ in RAJI cells (Homo sapiens (Human), UniProt O00329)
Sequence (O00329 whole entry): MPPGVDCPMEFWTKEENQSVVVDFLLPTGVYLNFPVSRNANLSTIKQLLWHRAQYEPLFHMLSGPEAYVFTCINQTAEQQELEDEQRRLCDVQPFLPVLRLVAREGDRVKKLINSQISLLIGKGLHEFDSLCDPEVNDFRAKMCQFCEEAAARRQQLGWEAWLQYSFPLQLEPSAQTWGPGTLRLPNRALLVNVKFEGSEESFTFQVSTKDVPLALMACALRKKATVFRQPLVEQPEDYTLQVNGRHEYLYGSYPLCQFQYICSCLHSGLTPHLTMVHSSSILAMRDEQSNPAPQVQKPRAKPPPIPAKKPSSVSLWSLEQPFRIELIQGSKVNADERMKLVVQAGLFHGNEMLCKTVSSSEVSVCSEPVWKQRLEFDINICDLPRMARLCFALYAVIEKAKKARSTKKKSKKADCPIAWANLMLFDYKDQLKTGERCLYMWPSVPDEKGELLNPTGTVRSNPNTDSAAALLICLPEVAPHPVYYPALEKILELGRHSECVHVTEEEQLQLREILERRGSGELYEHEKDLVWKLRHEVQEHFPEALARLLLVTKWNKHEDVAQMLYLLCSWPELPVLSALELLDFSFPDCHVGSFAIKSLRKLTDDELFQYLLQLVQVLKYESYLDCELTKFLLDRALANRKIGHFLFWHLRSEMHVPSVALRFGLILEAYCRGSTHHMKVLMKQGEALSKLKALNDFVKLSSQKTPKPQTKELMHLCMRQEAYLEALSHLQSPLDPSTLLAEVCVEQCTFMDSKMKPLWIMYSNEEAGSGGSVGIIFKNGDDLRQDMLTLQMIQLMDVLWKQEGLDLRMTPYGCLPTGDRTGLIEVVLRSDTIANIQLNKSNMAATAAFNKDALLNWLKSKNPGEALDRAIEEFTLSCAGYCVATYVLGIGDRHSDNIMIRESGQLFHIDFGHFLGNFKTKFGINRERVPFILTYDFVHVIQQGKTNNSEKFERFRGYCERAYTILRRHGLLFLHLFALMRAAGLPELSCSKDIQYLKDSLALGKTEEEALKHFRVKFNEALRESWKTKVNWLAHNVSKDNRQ
Sequence (P27986 whole entry partner): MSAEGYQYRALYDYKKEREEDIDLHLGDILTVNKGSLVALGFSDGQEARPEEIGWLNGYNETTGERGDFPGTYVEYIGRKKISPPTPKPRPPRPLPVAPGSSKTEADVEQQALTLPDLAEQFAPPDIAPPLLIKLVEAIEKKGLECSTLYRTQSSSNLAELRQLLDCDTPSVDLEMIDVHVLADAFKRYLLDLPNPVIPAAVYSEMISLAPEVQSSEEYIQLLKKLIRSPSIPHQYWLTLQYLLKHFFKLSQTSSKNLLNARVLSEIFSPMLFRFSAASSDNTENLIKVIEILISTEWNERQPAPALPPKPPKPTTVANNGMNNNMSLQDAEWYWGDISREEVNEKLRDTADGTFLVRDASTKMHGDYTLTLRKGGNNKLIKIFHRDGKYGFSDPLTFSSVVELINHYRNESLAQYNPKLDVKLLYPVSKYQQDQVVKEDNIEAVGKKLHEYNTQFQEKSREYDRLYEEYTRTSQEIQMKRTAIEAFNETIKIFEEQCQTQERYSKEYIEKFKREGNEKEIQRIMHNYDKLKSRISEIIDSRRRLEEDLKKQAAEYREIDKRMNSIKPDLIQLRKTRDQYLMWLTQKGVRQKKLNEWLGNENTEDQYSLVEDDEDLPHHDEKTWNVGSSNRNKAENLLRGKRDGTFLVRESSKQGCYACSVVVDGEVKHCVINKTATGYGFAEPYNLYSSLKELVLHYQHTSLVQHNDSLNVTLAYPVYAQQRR
protocol-notes: RAJI p110 δ assay (PI3K-δ selective cellular assay, phospho-AKT)
Format: cell-based
condition-context: read-out: Cellular IC50 δ
measured-attribute: pIC50
// scale note: pIC50 = -log10(conc_M); give the bare number

GET /values?item= CC(C)n1c([C@H](C)Nc2ncnc(N)c2C#N)cc2cccc(-c3ccc(=O)n(C)c3)c2c1=O [Compound AA, reference compound] &system= PI3K-δ in RAJI cells (Homo sapiens (Human), UniProt O00329) returns pIC50: 10.00

====

target-or-system: PI3K-δ in RAJI cells (Homo sapiens (Human), UniProt O00329)
protocol-notes: RAJI p110 δ assay (PI3K-δ selective cellular assay, phospho-AKT)
Assay type: cell-based
condition-context: phospho-AKT; read-out: RAJI p110 δ assay IC50
measured-attribute: IC50

Consider the worked cases shown below.
C[C@H](NC(=O)c1c(N)nn2cccnc12)c1cc2cccc(C#CCN3CCOCC3)c2c(=O)n1-c1ccccc1 [Compound 10]	1 to 10 µM
Cc1ncc(C#Cc2cccc3cc([C@H](C)NC(=O)c4c(N)nn5cccnc45)n(-c4ccccc4)c(=O)c23)s1 [Compound 76]	0.1 to 0.5 µM
C[C@H](NC(=O)c1c(N)nn2cccnc12)c1cc2cccc(C#CCN3CCCC3=O)c2c(=O)n1-c1ccccc1 [Compound 14]	0.001 to 0.1 µM
C[C@H](NC(=O)c1c(N)nn2cccnc12)c1cc2cccc(C#Cc3cncn3C)c2c(=O)n1-c1ccccc1 [Compound 7]	0.5 to 1 µM
C[C@H](NC(=O)c1c(N)nn2cccnc12)c1cc2cccc(C#Cc3cocn3)c2c(=O)n1-c1ccccc1 [Compound 66]	0.1 to 0.5 µM

Form: compound = C[C@H](NC(=O)c1c(N)nn2cccnc12)c1cc2cccc(C#CCO)c2c(=O)n1-c1ccccc1 [Compound 13] ; IC50 = 0.001 to 0.1 µM

Form: compound = Cc1cnc(C(=O)N[C@@H](C)c2cc3cccc(C#Cc4cnn(C)c4)c3c(=O)n2-c2ccccc2)c(N)n1 [Compound 68] ; IC50 = 1 to 10 µM

Form: compound = Cc1ncsc1C#Cc1cccc2cc([C@H](C)NC(=O)c3c(N)nn4cccnc34)n(-c3ccccc3)c(=O)c12 [Compound 75] ; IC50 = 1 to 10 µM

Form: compound = C[C@H](NC(=O)c1c(N)nn2cccnc12)c1cc2cccc(C#Cc3ccccc3)c2c(=O)n1-c1ccccc1 [Compound 5] ; IC50 = 0.001 to 0.1 µM
